biological target: HLA-A*0201 (human)
The following binders are listed with their measured relative binding ratio (IC50 of standard peptide / IC50 of test peptide) values.
experimental-readout: relative binding ratio (IC50 of standard peptide / IC50 of test peptide)

> print(dat)
                                     binder  result.number
1  QLCTELQTTI (modifications not checked) [HPV16 E6 peptide … (position 21, 10 amino acids)]         0.0012
2  LMKFLQGSVI (modifications not checked) [HPV16 E1 490 …]         0.0003
3  LLQQYCLYL (modifications not checked) [HPV16 E1 254 …]            0.1
4  DIRTLEDLL (modifications not checked) [HPV16 E7 peptide … (position 75, 9 amino acids)]         0.0003
5  ALYWYKTGI (modifications not checked) [HPV16 E1 … (position 318)]         0.0019
6  GLYNLLIRCL (modifications not checked) [HPV18 E6 peptide … (position 97)]         0.0036
7  ELSQMVQWA (modifications not checked) [HPV16 E1 356 peptide …]         0.0003
8  PLNPAEKLRHL (modifications not checked) [HPV18 E6 peptide … (position 111)]         0.0001
